experiment: Hemolytic activity against human RBC at 12.5 uM after 1 hr by Drabkin's assay relative to control
Type: ADME, cell-based, Erythrocyte
run_conditions: human red blood cells (erythrocytes), read-out: Activity
Exercise: state measured hemolysis at 1 h, 12.5 µM for each of the molecules provided.
Kindly answer with a numeric value in %, unit omitted.

Quick one: hemolysis at 1 h, 12.5 µM for `O=C(NCCO)[C@@H]1CCCN1C(=O)N1CCCN1C(=O)[C@@H]1CCCN1C(=O)N1CCCN1C(=O)[C@@H]1CCCN1C(=O)N1CCCN1C(=O)[C@@H]1CCCN1C(=O)N1CCCN1C(=O)[C@@H]1CCCN1C(=O)N1CCCN1C(=O)[C@@H]1CCCN1C(=O)N1CCCN1C(=O)[C@@H]1CCCN1C(=O)N1CCCN1C(=O)[C@@H]1CCCN1C(=O)N1CCCN1C(=O)OCc1ccccc1` ?
-0.04

Next record, please: `CC(C)(C)OC(=O)N1CCC[C@H]1C(=O)N1CCCN1C(=O)N1CCC[C@H]1C(=O)N1CCCN1C(=O)N1CCC[C@H]1C(=O)N1CCCN1C(=O)N1CCC[C@H]1C(=O)N1CCCN1C(=O)OCc1ccccc1`
0.038

Okay, and `CC(C)(C)OC(=O)N1CCC[C@H]1C(=O)N1CCCN1C(=O)N1CCC[C@H]1C(=O)N1CCCN1C(=O)N1CCC[C@H]1C(=O)N1CCCN1C(=O)N1CCC[C@H]1C(=O)N1CCCN1C(=O)N1CCC[C@H]1C(=O)N1CCCN1C(=O)N1CCC[C@H]1C(=O)N1CCCN1C(=O)N1CCC[C@H]1C(=O)N1CCCN1C(=O)N1CCC[C@H]1C(=O)N1CCCN1C(=O)OCc1ccccc1` ?
-0.17

====

experiment: Hemolytic activity against human RBC at 3.125 uM after 1 hr by Drabkin's assay relative to control
Assay type: ADME, cell-based, Erythrocyte
run_conditions: human red blood cells (erythrocytes), read-out: Activity
endpoint: hemolysis at 1 h, 3.125 µM (%)
The figure you give is taken to be in %; do not add the unit.

Suppose we examine the molecule `O=CN1CCCN1C(=O)N1CCC[C@H]1C(=O)N1CCCN1C(=O)N1CCC[C@H]1C(=O)N1CCCN1C(=O)N1CCC[C@H]1C(=O)N1CCCN1C(=O)N1CCC[C@H]1C(=O)N1CCCN1C(=O)N1CCC[C@H]1C(=O)N1CCCN1C(=O)N1CCC[C@H]1C(=O)NCCO` ; what hemolysis at 1 h, 3.125 µM value has been reported?
-0.55

Here is the next molecule: `CC(=O)N1CCCN1C(=O)N1CCC[C@H]1C(=O)N1CCCN1C(=O)N1CCC[C@H]1C(=O)N1CCCN1C(=O)N1CCC[C@H]1C(=O)N1CCCN1C(=O)N1CCC[C@H]1C(=O)N1CCCN1C(=O)N1CCC[C@H]1C(=O)N1CCCN1C(=O)N1CCC[C@H]1C(=O)N1CCCN1C(=O)N1CCC[C@H]1C(=O)N1CCCN1C(=O)N1CCC[C@H]1C(=O)NCCO`
-0.12

====

Test system: Acinetobacter baumannii
experiment: Growth inhibition of Acinetobacter baumannii ATCC 19606 at 32 ug/ml after 18 hrs
Format: functional
run_conditions: ATCC 19606 = CIP 70.34 = JCM 6841, 18 h, read-out: GI
endpoint: inhibition of growth at 32 µg/mL

Query: inhibition of growth at 32 µg/mL; subject: `O=C(NCCO)[C@@H]1CCCN1C(=O)N1CCCN1C(=O)[C@@H]1CCCN1C(=O)N1CCCN1C(=O)[C@@H]1CCCN1C(=O)N1CCCN1C(=O)[C@@H]1CCCN1C(=O)N1CCCN1C(=O)[C@@H]1CCCN1C(=O)N1CCCN1C(=O)[C@@H]1CCCN1C(=O)N1CCCN1C(=O)[C@@H]1CCCN1C(=O)N1CCCN1C(=O)[C@@H]1CCCN1C(=O)N1CCCN1C(=O)OCc1ccccc1`
36.2%

Next compound up: `Cl.O=C(OCc1ccccc1)N1CCCN1C(=O)[C@@H]1CCCN1C(=O)N1CCCN1C(=O)[C@@H]1CCCN1C(=O)N1CCCN1C(=O)[C@@H]1CCCN1C(=O)N1CCCN1C(=O)[C@@H]1CCCN1`
34.9%

Now try `O=CN1CCCN1C(=O)N1CCC[C@H]1C(=O)N1CCCN1C(=O)N1CCC[C@H]1C(=O)N1CCCN1C(=O)N1CCC[C@H]1C(=O)N1CCCN1C(=O)N1CCC[C@H]1C(=O)N1CCCN1C(=O)N1CCC[C@H]1C(=O)N1CCCN1C(=O)N1CCC[C@H]1C(=O)NCCO` .
3.07%

Queued: `O=CN1CCCN1C(=O)N1CCC[C@H]1C(=O)N1CCCN1C(=O)N1CCC[C@H]1C(=O)N1CCCN1C(=O)N1CCC[C@H]1C(=O)N1CCCN1C(=O)N1CCC[C@H]1C(=O)N1CCCN1C(=O)N1CCC[C@H]1C(=O)N1CCCN1C(=O)N1CCC[C@H]1C(=O)N1CCCN1C(=O)N1CCC[C@H]1C(=O)N1CCCN1C(=O)N1CCC[C@H]1C(=O)NCCO`
12.3%

====

System: Acinetobacter baumannii
experiment: Growth inhibition of Acinetobacter baumannii ATCC 19606 at 32 ug/ml after 18 hrs
Format: functional
run_conditions: ATCC 19606 = CIP 70.34 = JCM 6841, 18 h, read-out: GI
endpoint: inhibition of growth at 32 µg/mL (%)
The figure you give is taken to be in %; do not add the unit.

Quick check: inhibition of growth at 32 µg/mL of `O=C(OCc1ccccc1)N1CCCN1C(=O)[C@@H]1CCCN1C(=O)N1CCCN1C(=O)[C@@H]1CCCN1C(=O)N1CCCN1C(=O)[C@@H]1CCCN1C(=O)N1CCCN1C(=O)[C@@H]1CCCN1C(=O)N1CCCN1C(=O)[C@@H]1CCCN1C(=O)N1CCCN1C(=O)[C@@H]1CCCN1C(=O)N1CCCN1C(=O)[C@@H]1CCCN1C(=O)N1CCCN1C(=O)[C@@H]1CCCN1` ?
38.4

Also `CC(C)(C)OC(=O)[C@@H]1CCCN1C(=O)N1CCCN1C(=O)[C@@H]1CCCN1C(=O)N1CCCN1C(=O)[C@@H]1CCCN1C(=O)N1CCCN1C(=O)[C@@H]1CCCN1C(=O)N1CCCN1` , if possible.
-8.79

Likewise for `O=C(O)[C@@H]1CCCN1C(=O)N1CCCN1C(=O)[C@@H]1CCCN1C(=O)N1CCCN1C(=O)[C@@H]1CCCN1C(=O)N1CCCN1C(=O)[C@@H]1CCCN1C(=O)N1CCCN1C(=O)[C@@H]1CCCN1C(=O)N1CCCN1C(=O)[C@@H]1CCCN1C(=O)N1CCCN1C(=O)[C@@H]1CCCN1C(=O)N1CCCN1C(=O)[C@@H]1CCCN1C(=O)N1CCCN1C(=O)OCc1ccccc1` ?
4.46

Input `CC(=O)N1CCCN1C(=O)N1CCC[C@H]1C(=O)N1CCCN1C(=O)N1CCC[C@H]1C(=O)N1CCCN1C(=O)N1CCC[C@H]1C(=O)N1CCCN1C(=O)N1CCC[C@H]1C(=O)N1CCCN1C(=O)N1CCC[C@H]1C(=O)N1CCCN1C(=O)N1CCC[C@H]1C(=O)N1CCCN1C(=O)N1CCC[C@H]1C(=O)N1CCCN1C(=O)N1CCC[C@H]1C(=O)NCCO`
6.55

And what about the molecule `O=CN1CCCN1C(=O)N1CCC[C@H]1C(=O)N1CCCN1C(=O)N1CCC[C@H]1C(=O)N1CCCN1C(=O)N1CCC[C@H]1C(=O)N1CCCN1C(=O)N1CCC[C@H]1C(=O)N1CCCN1C(=O)N1CCC[C@H]1C(=O)N1CCCN1C(=O)N1CCC[C@H]1C(=O)N1CCCN1C(=O)N1CCC[C@H]1C(=O)NCCO` ?
6.14

// repeat for `CC(C)(C)OC(=O)N1CCC[C@H]1C(=O)N1CCCN1C(=O)N1CCC[C@H]1C(=O)N1CCCN1C(=O)N1CCC[C@H]1C(=O)N1CCCN1C(=O)N1CCC[C@H]1C(=O)N1CCCN1C(=O)N1CCC[C@H]1C(=O)N1CCCN1C(=O)N1CCC[C@H]1C(=O)N1CCCN1C(=O)N1CCC[C@H]1C(=O)N1CCCN1C(=O)N1CCC[C@H]1C(=O)N1CCCN1C(=O)OCc1ccccc1` and report
17.8

====

experiment: Hemolytic activity against human RBC at 3.125 uM after 1 hr by Drabkin's assay relative to control
Assay type: ADME, cell-based, Erythrocyte
run_conditions: human red blood cells (erythrocytes), read-out: Activity
I'd appreciate it if you could supply hemolysis at 1 h, 3.125 µM values for the items below.
Answer in %, number only, no unit symbol.

Find the recorded hemolysis at 1 h, 3.125 µM belonging to `O=C(O)[C@@H]1CCCN1C(=O)N1CCCN1C(=O)[C@@H]1CCCN1C(=O)N1CCCN1C(=O)[C@@H]1CCCN1C(=O)N1CCCN1C(=O)[C@@H]1CCCN1C(=O)N1CCCN1C(=O)[C@@H]1CCCN1C(=O)N1CCCN1C(=O)[C@@H]1CCCN1C(=O)N1CCCN1C(=O)[C@@H]1CCCN1C(=O)N1CCCN1C(=O)[C@@H]1CCCN1C(=O)N1CCCN1C(=O)OCc1ccccc1` and report it.
0.271

// repeat for `O=C(O)[C@@H]1CCCN1C(=O)N1CCCN1C(=O)[C@@H]1CCCN1C(=O)N1CCCN1C(=O)[C@@H]1CCCN1C(=O)N1CCCN1C(=O)[C@@H]1CCCN1C(=O)N1CCCN1C(=O)OCc1ccccc1` and report
0.452
